- Test system: L 1210 USA Tumor
- protocol_text: "in vivo" activity on L1210 U.S.A. tumor, 5 mg/kg i.p. days 1, 5, 9
- Set-up: species or system mouse
result_type: Median survival

Example entries and their recorded answers appear below.
- compound: "CO[C@@H]1C[C@@H](NC(=O)N(CCCl)N=O)[C@H](O)[C@@H](CNC(=O)N(CCCl)N=O)O1 [IC 1374]"
  measured_on: "L 1210 USA Tumor"
  data_value: "13,1"
- compound: "CO[C@@H]1C[C@@H](NC(=O)N(CCCl)N=O)[C@H](O)[C@@H](C)O1 [IC 1183]"
  measured_on: "L 1210 USA Tumor"
  data_value: "14,0"
- compound: "CO[C@@H]1C[C@@H](O)[C@H](O)[C@@H](CNC(=O)N(CCCl)N=O)O1 [IC 1350]"
  measured_on: "L 1210 USA Tumor"
  data_value: "10,25"
- compound: "CO[C@@H]1C[C@@H](NC(=O)N(CCCl)N=O)[C@H](OC)[C@@H](C)O1 [IC 1373]"
  measured_on: "L 1210 USA Tumor"
  data_value: "10,6"

Lab note: next compound to report on.
// query Median survival value for entry CO[C@@H]1C[C@@H](NC(=O)N(CCCl)N=O)[C@H](O)[C@@H](CO)O1 [IC 1184]
17,8
